Target: BSA (Bos taurus, UniProt P02769)
Experiment: Biacore 8K BSA control
Type: binding
Set-up: key: # = no binding; * = minimal non-specific binding
Settings: 10 nM simeprevir present
reported_property: BSA control

molecule: PRSIM_04: scFv PRSIM binding molecule, SEQ ID NO: 11 (protein, PRSIM_04) scFv: QVQLVQSGAEVKKPGSSVKVSCKASGGTFSSYAISWVRQAPGQGLEWMGGIIPIFGTANYAQKFQGRVTITADESTSTAYMELSSLRSEDTAVYYCARGMAHFYQFDLWGQGTLVTVSSGGGGSGGGGSGGGGSAQSVLTQPPSASGTPGQRVTISCSGSSSNIGSNTVNWYQQLPGTAPKLLIYSNNQRPSGVPDRFSGSKSGTSASLAISGLQSEDEADYYCAAGDHDHEHVVFGGGTKLTVL
reported_property: BSA control
assay_value: #
--
molecule: PRSIM_32: Tn3 PRSIM binding molecule, SEQ ID NO: 6 (protein, PRSIM_32) RLDAPSQIEVKDVTDTTALITWWSPRYYYASISGFELTYGIKDVPGDRTTIKLDYASNDYSIGNLKPDTEYEVSLISWNYGDWRYSSSNPAKITFKTGL
reported_property: BSA control
assay_value: #
--
molecule: PRSIM_23: Tn3 protein specific for HCV NS3/4A PR (S139A):simeprevir complex, SEQ ID NO: 5 (protein, PRSIM_23) RLDAPSQIEVKDVTDTTALITWVDPRYDDIWWFELTYGIKDVPGDRTTIKLYLNDPYYSIGNLKPDTEYEVSLISYTGDSYSRSGSNPAKITFKTGL
reported_property: BSA control
assay_value: #
